Reported values of glycan array binding signal (z-score) for individual entries
# assayed_target: Gal4S(b1-4)GlcNAc
# assay_details: glycan array binding signal (z-score within array); higher = stronger binding
# condition_set: glycan notation: IUPAC condensed, linker removed
The full list was thinned out, with the strongest signals kept by preference.
Enter a number only.

Summary for this binder, CV-IIL (Chromobacterium violaceum) (protein) AQQGVFTLPARINFGVTVLVNSAATQHVEIFVDNEPRAAFSGVGTGDNNLGTKVINSGSGNVRVQITANGRQSDLVSSQLVLANKLNLAVVGSEDGTDMDYNDSIVILNWPLG : glycan array binding signal (z-score) is -0.501

Summary for this binder, RbmA (Vibrio cholerae), A0A2H4NFB8 (protein) MSNFKGSIMNKRHYYLASCLALLFSTASYAEVDCELQPVIEANLSLNQNQLASNGGYISSQLGIRNESCETVKFKYWLSIKGPEGIYFPAKAVVGVDTAQQESDALTDGRMLNVTRGFWVPEYMADGKYTVSLQVVAENGEVFKANQEFVKGGDLNSLPELNGLTIDIKNQFGINSVESTGGFVPFTIDLNNGREGEAKVEFWMTAVGPDGLIIPVHSREKWMIIAGNTFSKVRGINFDKSYPAGEYTINAQVVDIVSGERVEQLMTVVKK : glycan array binding signal (z-score) is 3.32

Summary for this binder, EfCBM33A (Enterococcus faecalis), Q838S1 (protein) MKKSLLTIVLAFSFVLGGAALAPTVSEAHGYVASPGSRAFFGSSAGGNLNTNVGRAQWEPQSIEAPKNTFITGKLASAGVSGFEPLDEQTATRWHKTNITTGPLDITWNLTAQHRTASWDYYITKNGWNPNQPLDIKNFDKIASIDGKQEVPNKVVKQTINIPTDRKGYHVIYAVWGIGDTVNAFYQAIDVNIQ : glycan array binding signal (z-score) is -1.18
